Listed compounds paired with reported pIC50
# TGT: Human complement C1s enzyme (Homo sapiens)
# Construct: purified from human serum, Complement Technology, Inc
# Sequence (P09871 438-688 limits assumed): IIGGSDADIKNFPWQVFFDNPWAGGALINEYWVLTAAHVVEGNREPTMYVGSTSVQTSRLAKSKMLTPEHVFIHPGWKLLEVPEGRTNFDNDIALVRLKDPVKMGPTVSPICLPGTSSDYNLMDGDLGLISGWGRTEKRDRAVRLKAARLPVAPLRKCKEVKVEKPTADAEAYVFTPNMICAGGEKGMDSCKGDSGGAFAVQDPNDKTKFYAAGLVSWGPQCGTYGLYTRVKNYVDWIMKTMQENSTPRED
# Sequence (P09871 16-437 partner limits assumed): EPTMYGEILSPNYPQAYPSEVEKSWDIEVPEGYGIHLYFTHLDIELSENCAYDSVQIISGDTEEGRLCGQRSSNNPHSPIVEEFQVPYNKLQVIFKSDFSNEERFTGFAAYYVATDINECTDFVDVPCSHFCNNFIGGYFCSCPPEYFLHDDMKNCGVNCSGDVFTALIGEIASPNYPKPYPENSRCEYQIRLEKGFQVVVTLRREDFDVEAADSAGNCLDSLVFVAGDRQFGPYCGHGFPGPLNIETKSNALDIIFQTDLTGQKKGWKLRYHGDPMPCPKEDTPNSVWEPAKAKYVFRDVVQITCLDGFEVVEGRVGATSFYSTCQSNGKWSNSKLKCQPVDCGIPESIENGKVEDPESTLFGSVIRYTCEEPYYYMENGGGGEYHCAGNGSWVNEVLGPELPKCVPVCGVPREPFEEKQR
# ASSAY_PROTOCOL: Human C1s enzyme assay
# DETAILS: human complement C1s enzyme 1.16 nM, substrate Z-L-Lys-SBzl, A405; read-out: IC50 (Stars)
# Protocol: The […] values of the compounds of Table 1 were determined with the human C1s enzyme assay described below. Other standard complement assays are also available. Human complement C1s enzyme (purified from human serum, Complement Technology, Inc.) at 1.16 nM final concentration was incubated with test compound at various concentrations for 5 min at room temperature in 50 mM Tris, 1 M NaCl, pH 7.5. […] […]; ND indicates a compound for which the IC50 value is not determined.
pIC50: −log10 of the molar value.

| COMPOUND | PROPERTY_NAME | RESULT |
| --- | --- | --- |
| C[C@@H](Nc1cnc(N2CCCCC2)n(CC(=O)NCc2cc3cnccc3[nH]2)c1=O)c1coc(-c2ccccc2)n1 | pIC50 | 6.00 to 7.00 |
| Cc1cccc(-c2ncc(N[C@H](C)c3ccc4oc5ccccc5c4c3)c(=O)n2CC(=O)NCc2cc3cnccc3[nH]2)c1 | pIC50 | > 7.00 |
| O=C(Cn1c(-c2ccccc2)ncc(NC(=O)c2nc(-c3ccccc3)cs2)c1=O)NCc1cc2cnccc2[nH]1 | pIC50 | > 7.00 |

The value of pIC50 measured for the compound O=C(Cn1c(-c2ccccc2)ncc(NCCCCc2ccc(Oc3ccccc3)cc2)c1=O)NCc1cc2cnccc2[nH]1 turned out to be > 7.00

The compound identified as O=C(Cn1c(-c2ccccc2)ncc(Nc2ccc(F)cc2)c1=O)NCc1cc2cnccc2[nH]1 registered its pIC50 at > 7.00

Given item COc1ncc(N[C@H](C)c2ccc3oc4ccccc4c3c2)c(=O)n1CC(=O)NCc1cc2cnccc2[nH]1 , the value recorded as its pIC50 is < 6.00

Each recorded value in this set is attributed to patent US20260184707A1.
